Assay: Protein binding in human at 15 mg, po pretreated with voriconazole at 400 mg, po every 12 hrs for 1 day and 200, po mg every 12 hrs for one additional day measured after 5 hrs last post dose
Assay type: ADME, organism-based
Conditions: plasma, read-out: PPB (converted)
Parameter: fraction unbound at 5 h
Give the value as a plain number.

Entry under review: `Cc1cnc(NC(=O)C2=C(O)c3ccccc3S(=O)(=O)N2C)s1` . Reported fraction unbound at 5 h?
0.0017

---

Experiment: Cmax in human at 15 mg, po
Type: ADME, organism-based
Set-up: dose 15 mg, route oral
Conditions: in vivo
Parameter: Cmax (ng/mL)
Kindly provide the numeric value in ng/mL only, without the unit symbol.

Entry under review: Cc1cnc(NC(=O)C2=C(O)c3ccccc3S(=O)(=O)N2C)s1 [MELOXICAM] . Reported Cmax?
1250

---

Experiment: Protein binding in human at 15 mg, po pretreated with itraconazole at 200 mg, po qd for 4 days measured after 5 hrs last post dose
Format: ADME, organism-based
Details: plasma, read-out: PPB (converted)
Parameter: fraction unbound at 5 h
Give the value as a plain number.

Entry under review: Cc1cnc(NC(=O)C2=C(O)c3ccccc3S(=O)(=O)N2C)s1 [MELOXICAM] . Reported fraction unbound at 5 h?
0.0018

---

Experiment: Tmax in human at 15 mg, po
Assay type: ADME, organism-based
Details: in vivo
Parameter: Tmax (h)
Kindly provide the numeric value in h only, without the unit symbol.

Entry under review: Cc1cnc(NC(=O)C2=C(O)c3ccccc3S(=O)(=O)N2C)s1 [MELOXICAM] . Reported Tmax?
4

---

Test: Protein binding in human plasma at 15 mg, po after 5 hrs
Format: ADME, organism-based
Conditions: read-out: PPB (converted)
Parameter: fraction unbound at 5 h

Entry under review: `Cc1cnc(NC(=O)C2=C(O)c3ccccc3S(=O)(=O)N2C)s1` . Reported fraction unbound at 5 h?
0.0017
